# System tested: human melanocortin-4 receptor (human, UniProt P32245 1-332)
# Sequence (P32245 whole entry): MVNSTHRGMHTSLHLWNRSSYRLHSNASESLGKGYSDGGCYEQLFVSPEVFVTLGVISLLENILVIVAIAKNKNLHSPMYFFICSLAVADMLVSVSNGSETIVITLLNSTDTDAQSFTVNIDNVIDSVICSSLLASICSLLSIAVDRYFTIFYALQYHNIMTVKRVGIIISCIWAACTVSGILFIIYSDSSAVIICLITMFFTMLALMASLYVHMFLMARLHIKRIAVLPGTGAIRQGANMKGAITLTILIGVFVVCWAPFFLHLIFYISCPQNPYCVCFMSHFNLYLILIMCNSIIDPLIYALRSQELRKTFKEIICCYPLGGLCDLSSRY
# Assay overview: cell-based or functional assay
Positions of bridges follow the written chain, without caps; N, C: chain ends. Non-standard residues stand in square brackets, D forms with d. dPhe(3,4,5-F3) = N[C@H](Cc1cc(F)c(F)c(F)c1)C(=O)O; dPhe(2-CF3) = N[C@H](Cc1ccccc1C(F)(F)F)C(=O)O; dPhe(3,5-F2) = N[C@H](Cc1cc(F)cc(F)c1)C(=O)O; dPhe(2-Cl) = N[C@H](Cc1ccccc1Cl)C(=O)O; dPhe(4-F) = N[C@H](Cc1ccc(F)cc1)C(=O)O; Orn = NCCC[C@H](N)C(=O)O
Result type: EC50, cAMP, 0.1 ng/mL Doxycycline (nM)

# count of solved cases: 4
Binder	Result type	Test value
Ac-RET[dPhe(2-Cl)]RW[Orn]-NH2 (lactam 2-7; SMILES CC(=O)N[C@@H](CCCNC(=N)N)C(=O)N[C@H]1CCC(=O)NCCC[C@@H](C(N)=O)NC(=O)[C@H](Cc2c[nH]c3ccccc23)NC(=O)[C@H](CCCNC(=N)N)NC(=O)[C@@H](Cc2ccccc2Cl)NC(=O)[C@H]([C@@H](C)O)NC1=O, also called No. 32) [Ac-Arg-cyclo(Glu-Thr-D-Phe(2-Cl)-Arg-Trp-Orn)-NH2]	EC50, cAMP, 0.1 ng/mL Doxycycline	18
Ac-R[Orn]Q[dPhe(2-Cl)]RWE-NH2 (lactam 2-7) [Ac-Arg-cyclo(Orn-Gln-D-Phe(2-Cl)-Arg-Trp-Glu)-NH2]	EC50, cAMP, 0.1 ng/mL Doxycycline	0.39
Ac-REP[dPhe(4-F)]RW[Orn]-OH (lactam 2-7; SMILES CC(=O)N[C@@H](CCCNC(=N)N)C(=O)N[C@H]1CCC(=O)NCCC[C@@H](C(=O)O)NC(=O)[C@H](Cc2c[nH]c3ccccc23)NC(=O)[C@H](CCCNC(=N)N)NC(=O)[C@@H](Cc2ccc(F)cc2)NC(=O)[C@@H]2CCCN2C1=O) [Ac-Arg-cyclo(Glu-Pro-D-Phe(4-F)-Arg-Trp-Orn)-OH]	EC50, cAMP, 0.1 ng/mL Doxycycline	18
Ac-REN[dPhe(3,4,5-F3)]RW[Orn]-NH2 (lactam 2-7, also called No. 95) [Ac-Arg-cyclo(Glu-Asn-D-Phe(3,4,5-triF)-Arg-Trp-Orn)-NH2]	EC50, cAMP, 0.1 ng/mL Doxycycline	1

I. Ac-R[Orn]Q[dPhe(2-CF3)]RWE-NH2 (lactam 2-7, also called No. 115) [Ac-Arg-cyclo(Orn-Gln-D-Phe(2-CF3)-Arg-Trp-Glu)-NH2]
II. Ac-R[Orn]N[dPhe(3,5-F2)]RWE-NH2 (lactam 2-7, also called No. 77) [Ac-Arg-cyclo(Orn-Asn-D-Phe(3,5-diF)-Arg-Trp-Glu)-NH2]
Req: Return label of the item with the larger EC50, cAMP, 0.1 ng/mL Doxycycline. Candidates: I , II . Your choice should be expressed through its label.
Resp: II
(II: 3 nM, I: 0.8 nM)
